Reported pKi by item:
- SYSTEM_NAME: UniProtKB Q08210
- Sequence (Q08210 158-569 limits assumed): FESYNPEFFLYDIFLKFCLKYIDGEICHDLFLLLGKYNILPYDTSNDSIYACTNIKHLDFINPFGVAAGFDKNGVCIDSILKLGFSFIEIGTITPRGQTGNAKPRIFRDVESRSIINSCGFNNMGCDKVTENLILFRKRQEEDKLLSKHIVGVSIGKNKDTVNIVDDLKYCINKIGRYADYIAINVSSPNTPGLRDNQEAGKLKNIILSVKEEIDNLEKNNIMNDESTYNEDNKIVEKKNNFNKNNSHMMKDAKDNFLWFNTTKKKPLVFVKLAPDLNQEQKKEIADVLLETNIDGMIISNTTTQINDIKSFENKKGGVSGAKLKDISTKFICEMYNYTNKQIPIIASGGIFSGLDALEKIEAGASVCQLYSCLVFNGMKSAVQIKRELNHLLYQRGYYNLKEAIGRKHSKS
- EXPERIMENT_DESCRIPTION: Literature inhibition data for soluble recombinant PfDHODH (s-PfDHODH), dodecylubiquinone as substrate
- Assay type: biochemical
pKi: −log10 of the molar value.
PROPERTY_MEASURED: pKi

Cc1cc(Nc2ccc(C(F)(F)F)c(F)c2)n2ncnc2n1: 7.52
Cc1c(C(=O)Nc2ccc(F)c(F)c2)cccc1[N+](=O)[O-]: 6.85
Cc1cc(Nc2ccccc2)n2ncnc2n1: 4.40
COc1ccccc1NC(=O)Nc1cccc2ccccc12: 6.92
O=C(Nc1ccc(Cl)cc1)Nc1cccc2cccnc12: 6.27
O=C(Nc1ccccc1F)c1ccc2ccccc2c1: 6.70
CCOC(=O)C(=CNc1cccc(-c2ccccc2)c1)C(=O)OCC: 5.00
C/C(O)=C(/C#N)C(=O)Nc1ccc(-c2ccccc2Cl)c(Cl)c1: 4.69
Cc1cc(Nc2ccc3cc4ccccc4cc3c2)n2ncnc2n1: 7.70
CCOC(=O)/C(C#N)=C\Nc1ccc2c(c1)c1ccccc1n2CC: 7.30
CCOC(=O)C(=CNc1ccccc1C)C(=O)OCC: 4.40
C/C(O)=C(\C#N)C(=O)Nc1ccc(-c2cccc(Cl)c2)cc1C(F)(F)F: 5.17
CCCNC(=O)c1ccc(-n2c(C)cc3ccccc32)s1: 7.70
CCOC(=O)C(=CNc1ccc(C)cc1)C(=O)OCC: 5.34
CCCNC(=O)c1ccc(-n2ccc3ccccc32)s1: 6.70
CCOc1cccc(-c2ccc(NC(=O)/C(C#N)=C(\C)O)cc2)c1: 4.67
Cc1c(C(=O)Nc2cccc(C(F)(F)F)c2)cccc1[N+](=O)[O-]: 7.40
Cc1c(C(=O)Nc2ccc(Cl)c(Cl)c2)cccc1[N+](=O)[O-]: 7.40
Cc1c(C(=O)Nc2cccc(Br)c2)cccc1[N+](=O)[O-]: 7.70
CCOC(=O)C(=CNc1ccc2[nH]cnc2c1)C(=O)OCC: 4.40
O=C(Nc1ccccc1C(F)(F)F)Nc1cccc2ccccc12: 6.74
